tested on: Escherichia coli TOP10; assay: shrunken log2 fold change of peptide-encoding DNA abundance (4.5 h post-induction vs induction); higher = less antimicrobial activity (less host growth inhibition); details: time post-induction: 4.5 h; library: site-saturation at positions 5, 18, 19, 20;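 also: peptides expressed intracellularly from a pBAD plasmid library in pooled LB shake-flask culture, induced with 0.3% L-arabinose, DNA abundance read by NGS, three biological replicates, DESeq2 with apeglm shrinkage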
measured-parameter: shrunken log2 fold change
Answer with a number only.

Below, each entry is followed by its recorded shrunken log2 fold change result.
RRIRPRPPRLPRPRPRPTQNPRP | 0.534
RRIRMRPPRLPRPRPRPGTKPRP | 0.844
RRIRIRPPRLPRPRPRPRDYPRP | -0.14
RRIRPRPPRLPRPRPRPCYHPRP | -0.428
RRIRRRPPRLPRPRPRPIHIPRP | -0.579
RRIRTRPPRLPRPRPRPVMRPRP | -0.0406
RRIRRRPPRLPRPRPRPTHQPRP | 0.414
RRIRIRPPRLPRPRPRPSGGPRP | 0.0858

Record summary for `RRIRQRPPRLPRPRPRPQPTPRP` : reported shrunken log2 fold change = 0.163

Record summary for `RRIRLRPPRLPRPRPRPLKGPRP` : reported shrunken log2 fold change = -0.0279

Record summary for `RRIRARPPRLPRPRPRPPCYPRP` : reported shrunken log2 fold change = 0.146

Record summary for `RRIRLRPPRLPRPRPRPVHCPRP` : reported shrunken log2 fold change = -0.11

Record summary for `RRIRKRPPRLPRPRPRPLAAPRP` : reported shrunken log2 fold change = 0.847

Record summary for `RRIRLRPPRLPRPRPRPLARPRP` : reported shrunken log2 fold change = 0.615

Record summary for `RRIRGRPPRLPRPRPRPCSLPRP` : reported shrunken log2 fold change = 0.237

Record summary for `RRIRSRPPRLPRPRPRPELWPRP` : reported shrunken log2 fold change = 0.743

Record summary for `RRIRCRPPRLPRPRPRPKQFPRP` : reported shrunken log2 fold change = -0.188

Record summary for `RRIRPRPPRLPRPRPRPNVWPRP` : reported shrunken log2 fold change = 0.183
